- run_description: total protein half-life in vivo (active degradation + dilution); higher = more stable protein
- details: wild type E. coli NCM3722; growth: P-lim chemostat; doubling time 12 h
metric: total protein half-life in vivo (h)
Numbers only, in h.

Please give total protein half-life in vivo for each item listed below.
1. MRWQGRRESDNVEDRRNSSGGPSMGGPGFRLPSGKGGLILLIVVLVAGYYGVDLTGLMTGQPVSQQQSTRSISPNEDEAAKFTSVILATTEDTWGQQFEKMGKTYQQPKLVMYRGMTRTGCGAGQSIMGPFYCPADGTVYIDLSFYDDMKDKLGADGDFAQGYVIAHEVGHHVQKLLGIEPKVRQLQQNATQAEVNRLSVRMELQADCFAGVWGHSMQQQGVLETGDLEEALNAAQAIGDDRLQQQSQGRVVPDSFTHGTSQQRYSWFKRGFDSGDPAQCNTFGKSI
2. MIKRVLVVSMVGLSLVGCVNNDTLSGDVYTASEAKQVQNVSYGTIVNVRPVQIQGGDDSNVIGAIGGAVLGGFLGNTVGGGTGRSLATAAGAVAGGVAGQGVQSAMNKTQGVELEIRKDDGNTIMVVQKQGNTRFSPGQRVVLASNGSQVTVSPR [P0A905]
3. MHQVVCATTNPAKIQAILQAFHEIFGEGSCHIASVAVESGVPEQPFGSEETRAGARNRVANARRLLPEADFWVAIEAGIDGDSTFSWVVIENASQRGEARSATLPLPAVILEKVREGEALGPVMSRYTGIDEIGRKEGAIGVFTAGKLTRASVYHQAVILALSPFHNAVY
4. MAMYQNMLVVIDPNQDDQPALRRAVYLHQRIGGKIKAFLPIYDFSYEMTTLLSPDERTAMRQGVISQRTAWIHEQAKYYLNAGVPIEIKVVWHNRPFEAIIQEVISGGHDLVLKMAHQHDRLEAVIFTPTDWHLLRKCPSPVWMVKDQPWPEGGKALVAVNLASEEPYHNALNEKLVKETIELAEQVNHTEVHLVGAYPVTPINIAIELPEFDPSVYNDAIRGQHLLAMKALRQKFGINENMTHVEKGLPEEVIPDLAEHLQAGIVVLGTVGRTGISAAFLGNTAEQVIDHLRCDLLVIKPDQYQTPVELDDEEDD [P0AAC0]
5. METKNLTIGERIRYRRKNLKHTQRSLAKALKISHVSVSQWERGDSEPTGKNLFALSKVLQCSPTWILFGDEDKQPTPPVEKPVALSPKELELLELFNALPESEQDTQLAEMRARVKNFNKLFEELLKARQRTNKR
6. MKIGIIGAMEEEVTLLRDKIENRQTISLGGCEIYTGQLNGTEVALLKSGIGKVAAALGATLLLEHCKPDVIINTGSAGGLAPTLKVGDIVVSDEARYHDADVTAFGYEYGQLPGCPAGFKADDKLIAAAEACIAELNLNAVRGLIVSGDAFINGSVGLAKIRHNFPQAIAVEMEATAIAHVCHNFNVPFVVVRAISDVADQQSHLSFDEFLAVAAKQSSLMVESLVQKLAHG [P0AF12]
7. MVSRRVQALLDQLRAQGIQDEQVLNALAAVPREKFVDEAFEQKAWDNIALPIGQGQTISQPYMVARMTELLELTPQSRVLEIGTGSGYQTAILAHLVQHVCSVERIKGLQWQARRRLKNLDLHNVSTRHGDGWQGWQARAPFDAIIVTAAPPEIPTALMTQLDEGGILVLPVGEEHQYLKRVRRRGGEFIIDTVEAVRFVPLVKGELA [P0A7A5]
8. MLIFEGKEIETDTEGYLKESSQWSEPLAVVIAENEGISLSPEHWEVVRFVRDFYLEFNTSPAIRMLVKAMANKFGEEKGNSRYLYRLFPKGPAKQATKIAGLPKPVKCI [P0AB18]

1: 8.39; 2: 11.5; 3: 10.9; 4: 12.2; 5: 10.7; 6: 12.1; 7: 10.2; 8: 10.2
